# method_description: in vitro
# particulars: human, plasma
Where a name gives a salt, the structure may show the parent alone.
Examples of molecules with documented fraction unbound at 6 h, 10 μM follow.

INSERT INTO measurements (molecule, value_observed) VALUES
  ('CC(=O)CC(c1ccccc1)c1c(O)c2ccccc2oc1=O (centres unmarked)', 0.0179);

Please look at the following molecule next.
Task: Tell me measured fraction unbound at 6 h, 10 μM for CNC(=C[N+](=O)[O-])NCCSCc1ccc(CN(C)C)o1 [Ranitidine HCl] please.
Output: 0.852

Source: paper PMC2875737
